# System: K-562 leukemia
# EXPERIMENT_DESCRIPTION: NCI-60 one-dose screen, 48 h (100 = growth as untreated, 0 = no growth, -100 = all killed)
# CONDITION_DETAILS: 10 µM
About 83,000 compounds went through this panel and 20% of them were active in at least one assay; those are over-represented in the sample as a whole.
# met = growth below 30% (exclusive); not met = growth at/above 30%

State whether 30% exceeds growth recorded for CC(C)C1(NC(=O)C2CC3c4cccc5[nH]cc(c45)CC3N(C)C2)OC2(O)C3CCCN3C(=O)C(Cc3ccccc3)N2C1=O (configuration not stated) . not met

Continue with `Oc1c(Cl)cc(Cl)c2ccccc12.[Cu+2]` not met

Continue with `O=C1C=Cc2ccccc2C1=O` not met

Continue with `O=C1CCC(=O)N1SC(Cl)(Cl)Cl` not met

Continue with `COc1ccc2c(ccc3oc([N+](=O)[O-])cc32)c1` met

Continue with `COc1ccccc1/C=C/[N+](=O)[O-]` not met

Continue with `O=C(CBr)Nc1ccc(Cl)cc1` met

---

# System: MOLT-4 leukemia
# EXPERIMENT_DESCRIPTION: NCI-60 one-dose screen, 48 h
# CONDITION_DETAILS: 10 µM
Compounds without any hit were thinned out: in the full panel of roughly 83,000, 20% have a hit. Calls of active or inactive are those of the source. How the source made its calls: active means growth percent below 10; inactive means the rest.
Outcome (select one): active, inactive

Example cases with answers are listed next.
# COMPOUND, ASSIGNED_CLASS
records = [
    ("CS(=N)(=O)CCC(N)C(=O)O (stereo not drawn)", "inactive"),
    ("[O-][n+]1ccccc1S", "inactive"),
    ("COC12c3c(C)cc(O)c4c(=O)occ(c34)C(=O)C1C13COC(=O)c4c(O)cc(C)c(c41)C(=O)C2C3OC(C)=O (stereo not drawn)", "inactive"),
    ("O=[P+](O)c1ccccc1", "inactive"),
    ("CCOP(=O)(OCC)C(O)c1ccccc1Cl (stereo not drawn)", "inactive"),
]

Please let me know the test result on file for CC12OOC(c3ccccc31)c1c2ccc2ccccc12 (stereo not drawn) . active

Continue with `COc1cc(/C=C/[N+](=O)[O-])cc(OC)c1OC` active

Continue with `Oc1c(Cl)cc(Cl)c2ccccc12.[Cu+2]` inactive

Continue with `Cc1cc(C(C)(C)c2ccc(O)c(C)c2)ccc1O` inactive

Continue with COC(C(=O)C(O)C(C)O)C1Cc2cc3cc(OC4CC(OC(C)=O)C(OC5CC(O)C(OC)C(C)O5)C(C)O4)cc(O)c3c(O)c2C(=O)C1OC1CC(OC2CC(OC3CC(C)(O)C(OC(=O)C(C)C)C(C)O3)C(O)C(C)O2)C(O)C(C)O1 (stereo not drawn) active

Continue with `C[C@]12CC[C@H]3[C@@H](CCC4=CC(=O)CC[C@@H]43)[C@@H]1CC[C@@H]2OC(=O)N(CCCl)N=O` inactive

Continue with `ClCc1ccc2ccccc2n1` inactive

Continue with `[Cl][Sn]([c]1ccccc1)([c]1ccccc1)[c]1ccccc1` active

Continue with CC[C@@]1(O)C[C@H](OC2CC(N(C)C)C(O)C(C)O2)c2c(cc3c(c2O)C(=O)c2c(O)ccc(O)c2C3=O)[C@H]1C(=O)OC (stereo partly drawn) active

Continue with `CN(C)CC1(N)C(=O)NC(=O)NC1=O` inactive

Continue with `O=[N+]([O-])c1cc[n+]([O-])c2ccccc12` active

Continue with O=C(O)c1cc(Cc2ccc(O)c(C(=O)O)c2)ccc1O (tested in a mixture with another compound) inactive

Continue with `C[CH2][Hg][S]c1ccccc1C(=O)O` active

Continue with CC(C)C1(NC(=O)C2CC3c4cccc5[nH]cc(c45)CC3N(C)C2)OC2(O)C3CCCN3C(=O)C(Cc3ccccc3)N2C1=O (stereo not drawn) inactive
